The reported measurements were obtained from patent US9611258B2.

biological target: UniProtKB Q96GD4
Sequence (Q96GD4 whole entry): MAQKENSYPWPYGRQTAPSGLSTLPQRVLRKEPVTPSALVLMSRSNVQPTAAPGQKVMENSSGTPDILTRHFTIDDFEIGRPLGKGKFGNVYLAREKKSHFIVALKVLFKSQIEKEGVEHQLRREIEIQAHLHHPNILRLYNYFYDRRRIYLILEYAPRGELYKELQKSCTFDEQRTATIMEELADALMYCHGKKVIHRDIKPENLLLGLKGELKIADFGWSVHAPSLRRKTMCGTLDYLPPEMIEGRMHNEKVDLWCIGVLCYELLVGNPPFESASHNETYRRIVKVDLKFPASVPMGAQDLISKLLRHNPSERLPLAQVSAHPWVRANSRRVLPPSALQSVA
Experimental readout: IC50

// returns reported IC50 for input Cc1c(Cc2cccc(N(C)S(=O)(=O)CCCNCCCCCC(=O)N3CCN(c4nc(N5CCOCC5)nc(-n5c(C(F)F)nc6ccccc65)n4)CC3)c2)c(=O)oc2cc(OC(=O)N(C)C)ccc12 [MV3-65A]
> 10 µM

====

molecular target: MEK1 (Homo sapiens)
Sequence (Q02750 whole entry): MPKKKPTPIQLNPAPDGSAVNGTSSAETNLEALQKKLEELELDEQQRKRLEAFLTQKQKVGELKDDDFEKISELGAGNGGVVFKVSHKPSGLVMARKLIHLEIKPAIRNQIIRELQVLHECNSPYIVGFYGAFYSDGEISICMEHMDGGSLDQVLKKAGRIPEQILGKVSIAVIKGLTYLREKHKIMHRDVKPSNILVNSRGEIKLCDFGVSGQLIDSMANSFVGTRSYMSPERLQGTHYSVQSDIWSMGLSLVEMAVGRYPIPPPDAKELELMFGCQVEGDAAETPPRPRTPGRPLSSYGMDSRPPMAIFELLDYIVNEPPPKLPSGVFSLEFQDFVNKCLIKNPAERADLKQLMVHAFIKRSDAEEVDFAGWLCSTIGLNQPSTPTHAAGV
Experimental readout: pIC50
Lab note — pIC50 values are minus log10 of concentrations in M.

Which pIC50 is reported with MEK1 (Homo sapiens) for this entry: Cc1c(Cc2cccc(N(C)S(=O)(=O)CCCNCCCCCC(=O)N3CCN(c4nc(N5CCOCC5)nc(-n5c(C(F)F)nc6ccccc65)n4)CC3)c2)c(=O)oc2cc(OC(=O)N(C)C)ccc12 [MV3-65A] ?
6.30
